Taken from ChEMBL document CHEMBL4480375.

target: Glutamate receptor ionotropic, NMDA 2B (Homo sapiens, UniProt Q13224); assay: Displacement of [3H]-ifenprodil from GluN2B (unknown origin) expressed in mouse L(tk) cells measured after 120 mins by scintillation counting analysis
Sequence (Q13224 whole entry): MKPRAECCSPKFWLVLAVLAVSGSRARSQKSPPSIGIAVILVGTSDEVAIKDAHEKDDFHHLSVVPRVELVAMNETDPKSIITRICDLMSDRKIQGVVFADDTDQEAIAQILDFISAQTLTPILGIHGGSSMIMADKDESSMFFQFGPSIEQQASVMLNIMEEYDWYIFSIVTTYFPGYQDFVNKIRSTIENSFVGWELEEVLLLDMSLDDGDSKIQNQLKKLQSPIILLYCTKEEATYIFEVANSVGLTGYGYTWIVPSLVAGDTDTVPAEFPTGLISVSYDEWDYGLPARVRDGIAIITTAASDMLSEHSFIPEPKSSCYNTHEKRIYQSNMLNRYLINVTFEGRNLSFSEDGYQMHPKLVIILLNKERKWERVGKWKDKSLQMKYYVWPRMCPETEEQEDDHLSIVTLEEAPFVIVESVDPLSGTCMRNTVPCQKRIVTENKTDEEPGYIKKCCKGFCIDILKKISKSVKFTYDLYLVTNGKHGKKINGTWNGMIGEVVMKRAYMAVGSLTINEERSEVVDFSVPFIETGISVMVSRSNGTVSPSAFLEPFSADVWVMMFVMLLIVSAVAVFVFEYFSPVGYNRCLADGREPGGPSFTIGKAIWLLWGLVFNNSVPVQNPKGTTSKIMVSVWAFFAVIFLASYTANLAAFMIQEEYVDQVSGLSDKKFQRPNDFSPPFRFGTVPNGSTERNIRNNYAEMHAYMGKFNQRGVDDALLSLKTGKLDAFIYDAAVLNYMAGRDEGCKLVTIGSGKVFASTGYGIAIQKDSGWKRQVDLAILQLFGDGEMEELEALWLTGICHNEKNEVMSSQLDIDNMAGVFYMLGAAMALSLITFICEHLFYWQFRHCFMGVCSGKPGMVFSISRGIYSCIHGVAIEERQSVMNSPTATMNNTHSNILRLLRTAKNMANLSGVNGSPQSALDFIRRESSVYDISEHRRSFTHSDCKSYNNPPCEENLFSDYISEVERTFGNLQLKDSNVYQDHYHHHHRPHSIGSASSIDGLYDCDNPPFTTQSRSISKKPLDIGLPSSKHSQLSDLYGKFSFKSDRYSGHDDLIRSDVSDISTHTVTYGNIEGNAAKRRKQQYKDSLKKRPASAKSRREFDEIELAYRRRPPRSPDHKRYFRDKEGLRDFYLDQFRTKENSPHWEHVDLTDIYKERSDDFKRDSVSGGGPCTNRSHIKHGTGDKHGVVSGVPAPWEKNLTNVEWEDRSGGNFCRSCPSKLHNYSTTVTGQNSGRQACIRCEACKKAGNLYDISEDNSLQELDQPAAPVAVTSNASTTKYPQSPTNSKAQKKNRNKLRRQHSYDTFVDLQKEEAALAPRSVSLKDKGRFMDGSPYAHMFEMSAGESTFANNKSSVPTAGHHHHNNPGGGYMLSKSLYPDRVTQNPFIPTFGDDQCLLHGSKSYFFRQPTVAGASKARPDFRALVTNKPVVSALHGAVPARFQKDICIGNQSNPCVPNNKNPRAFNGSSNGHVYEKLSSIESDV

[
  {
    "COMPOUND": "COc1ccc2c(c1)CC[C@H](NCCCc1ccccc1)C[C@H]2O (relative stereo)",
    "UNITS": "nM",
    "Ki": 48
  },
  {
    "COMPOUND": "c1ccc(CNC2CCc3ccsc3CC2)cc1 (centres undefined)",
    "UNITS": "nM",
    "Ki": 26
  },
  {
    "COMPOUND": "OC1CC(NCc2ccccc2)CCc2sccc21 (mixture of isomers)",
    "UNITS": "nM",
    "Ki": 204
  },
  {
    "COMPOUND": "Nc1ccc2c(c1)CCC(NCc1ccccc1)CC2 (centres undefined)",
    "UNITS": "nM",
    "Ki": 128
  }
]

###

molecular target: Sigma non-opioid intracellular receptor 1 (Cavia porcellus); assay: Displacement of [3H]-(+)-pentazocine from sigma1 receptor in guinea pig brain cortex membranes measured after 120 mins by scintillation counting analysis
Sequence (Q60492 whole entry): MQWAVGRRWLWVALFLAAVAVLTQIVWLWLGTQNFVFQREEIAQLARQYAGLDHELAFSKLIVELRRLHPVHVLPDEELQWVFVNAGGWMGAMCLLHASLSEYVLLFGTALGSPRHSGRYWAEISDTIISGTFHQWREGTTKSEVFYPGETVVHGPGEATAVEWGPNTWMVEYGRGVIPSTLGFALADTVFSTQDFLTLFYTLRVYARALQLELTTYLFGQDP
As shown below, each of these compounds has a reported Ki value.

[
  {
    "COMPOUND": "OC1CC(NCc2ccccc2)CCc2sccc21 (mixture of isomers)",
    "STUDY_SYSTEM": "Sigma non-opioid intracellular receptor 1 (Cavia porcellus)",
    "Ki (nM)": 737
  },
  {
    "COMPOUND": "COc1ccc2c(c1)CC[C@H](NCCCc1ccccc1)C[C@@H]2O (relative stereo)",
    "STUDY_SYSTEM": "Sigma non-opioid intracellular receptor 1 (Cavia porcellus)",
    "Ki (nM)": 132
  },
  {
    "COMPOUND": "Nc1ccc2c(c1)CCC(NCc1ccccc1)CC2 (stereo not given)",
    "STUDY_SYSTEM": "Sigma non-opioid intracellular receptor 1 (Cavia porcellus)",
    "Ki (nM)": 470
  },
  {
    "COMPOUND": "c1ccc(CNC2CCc3ccsc3CC2)cc1 (stereo not given)",
    "STUDY_SYSTEM": "Sigma non-opioid intracellular receptor 1 (Cavia porcellus)",
    "Ki (nM)": 79
  },
  {
    "COMPOUND": "COc1ccc2c(c1)CC[C@H](NCCCc1ccccc1)C[C@H]2O (relative stereo)",
    "STUDY_SYSTEM": "Sigma non-opioid intracellular receptor 1 (Cavia porcellus)",
    "Ki (nM)": 167
  }
]
